# PROTOCOL_DETAILS: soluble on expression in E. coli; label from the status in PepcDB or PDB records
PROPERTY: soluble on expression in E. coli

{"SEQ_STRING": "MGSDKIHHHHHHMYEFNDTIRGTPKVTFNLKTTIGGKVLEDELNNGFGTFRTLTVSGRDVVDLEHQTTSVLGRNGEYFHNATVEVRKLEIKAKISGKDNKSMRLQYEKLNKLIVSHNQVFLSFSDEPDRNYLGIFKSKDVPEEVSNEQIIGLTFICYNPFKMSDVKTKKGTSIQNGGLFQTKPIITLNLSSPTKEIKLLHVESQKYIRLTGTYTTDEIKIDMATGKITQNGRNILGDLDMINSRYFELLPGNNTLQCANAAITAEFREVYL", "soluble on expression in E. coli": "not soluble"}
{"SEQ_STRING": "SMQEEDTFRELRIFLRNVTHRLAIDKRFRVFTKPVDPDEVPDYVTVIKQPMDLSSVISKIDLHKYLTVKDYLRDIDLICSNALEYNPDRDPGDRLIRHRACALRDTAYAIIKEELDEDFEQLCEEIQESR", "soluble on expression in E. coli": "soluble"}
{"SEQ_STRING": "MSILEQVQPIETMLPERYYTMSTEDMEKRVREIKEKMGKMLFIPGHHYQKDEVVQFSDAVGDSLQLAQVAASNKDAKYIVFCGVHFMAETADMLTTDDQVVILPDMRAGCSMADMADIEQTERAWKELTKLFGDTMIPLTYVNSTAAIKAFCGRNGGATVTSSNAKQMVSWAFTQKERLVFLPDQHLGRNTAYDLGIPLDKMAVWDPHTDSLEYDGDIEEIQVILWKGHCSVHQNFTVKNIESVRKNHSDMNIIVHPECCYEVVAASDYAGSTKYIIDMIESAPPGSKWAIGTEMNLVNRIIQQHPDKEIVSLNPFMCPCLTMNRIDLPHLLWALETIERGEEINVISVDKQVTAEAVLALNRMLERV", "soluble on expression in E. coli": "not soluble"}
{"SEQ_STRING": "MLRRVNEQGPVQGRAQAPVKPDDSVPPELARARVWILTDGKAGDENQCIGIAEALGLAYETRRIPDGRPLTWMAPWGPIDPRDAPGRAGGLLQGPLPHLLIASGRRAVPYLRAVRRASDEKTFTAFLKDPRTGHDTADFIWVPDYDDLRGPNVFTTLTAPHPVSRARLDAARTTPDPRLARLPWPRIAVLIGGDSRHLRYRKADMQRLVRDLTKLAEGGCSLMLTVSRRTPPDLRKALEDLVKDKGGFFWDGSGENPYVGMLAIADHIVVTSDSANMVGEAASTGVPLLLFDLPRTYIRHRRMFAGLAMAGALKPFIGRLEALRYAPIDATPEIAAALAEGYQRHRARLAGEVAAVPRPAEPTSAPRGPFLEHHHHHH", "soluble on expression in E. coli": "not soluble"}

Attention now turns to another entry.
Q. Identify measured soluble on expression in E. coli corresponding to MADRRNLFFFYGDDKATLVEKMKPIYRILEENGFTILDHPKNANAIVSVGDDATFLQAVRKTGFREDCLYAGISTKDEISFYCDFHIDHVDTALQEITKNEIEVRKYPTIQVDVDGSTSFHCLNEFSLRSSIIKTFVVDVHVDDLYFETFRGDGLVVSTPTGSTAYNKSLHGAVVDPLIPCFQVSELASLNNNTYRTLGSPFILNHERTLTLKLRPDGNDYPVIGMDNEALSIKQVEKAVVRLSDKQIKTVKLKNNSFWEKVQRTFLLEHHHHHH
A. soluble
